The reader will find reported viability, T/C values listed item by item below.
- System: 997537-175-T-J1-PDC complex spheroid viability;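 note: spheroids exposed to the agents for 7 days; 100% = DMSO vehicle control viability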
- protocol notes: Anticancer human tumor 997537-175-T-J1-PDC patient-derived colon adenocarcinoma cell line growth inhibition [GQUAD]
- recorded conditions: second compound 10 µM; first compound 0.000999 µM; active compounds read low
- Excerpt: DNA G-quadruplex Stabilizer Agents in Combinations in Complex Spheroids A high-throughput screen of multi-cell type tumor spheroids was designed to identify active combinations of DNA G-quadruplex stabilizer agents and targeted small molecules. […] Compounds. […] If the clinical Cmax for an agent had not been determined, the highest concentration tested was 10 microM. […]

{"columns": ["compound", "readout units", "viability, T/C"],
 "data": [
  ["CC[C@@]1(O)C(=O)OCc2c1cc1n(c2=O)Cc2cc3c(CN(C)C)c(O)ccc3nc2-1 + CN(C)c1ccc(Nc2c3ccc(NC(=O)CCN4CCCC4)cc3nc3cc(NC(=O)CCN4CCCC4)ccc23)cc1", "%", 86.3],
  ["Cc1[nH]c2ccccc2c1CCNCc1ccc(/C=C/C(=O)NO)cc1 + Cc1cnc(CNC(=O)c2c(=O)c3ccc(N4CCCN(C)CC4)nc3n3c2sc2ccccc23)cn1", "%", 99.2],
  ["Cn1ncnc1[C@H]1c2n[nH]c(=O)c3cc(F)cc(c23)N[C@@H]1c1ccc(F)cc1 + CN(C)c1ccc(Nc2c3ccc(NC(=O)CCN4CCCC4)cc3nc3cc(NC(=O)CCN4CCCC4)ccc23)cc1", "%", 77.1],
  ["CCc1c2c(nc3ccc(O)cc13)-c1cc3c(c(=O)n1C2)COC(=O)[C@]3(O)CC + CN(C)c1ccc(Nc2c3ccc(NC(=O)CCN4CCCC4)cc3nc3cc(NC(=O)CCN4CCCC4)ccc23)cc1", "%", 83.9],
  ["Cc1[nH]c2ccccc2c1CCNCc1ccc(/C=C/C(=O)NO)cc1 + CN(C)c1ccc(Nc2c3ccc(NC(=O)CCN4CCCC4)cc3nc3cc(NC(=O)CCN4CCCC4)ccc23)cc1", "%", 82.3]
]}

The reported measurements were obtained from PubChem BioAssay AID2060487.
